Source: patent US8614223B2

target: UniProt Q13547; experiment: HDAC enzyme assay, HDAC1
experimental-readout: pIC50
Convention used: pIC50 is expressed as -log10 of the molar concentration.

Request: // returns reported pIC50 for input COc1ccc(C2(Nc3ncc(C(=O)NO)cn3)CC2)cc1 [Compound 97]
Response: 7.72

###

target: HDAC1 (Homo sapiens (Human), UniProt Q13547); assay: HDAC enzyme assay, HDAC1; conditions: ratio HDAC1/HDAC6
Sequence (Q13547 whole entry): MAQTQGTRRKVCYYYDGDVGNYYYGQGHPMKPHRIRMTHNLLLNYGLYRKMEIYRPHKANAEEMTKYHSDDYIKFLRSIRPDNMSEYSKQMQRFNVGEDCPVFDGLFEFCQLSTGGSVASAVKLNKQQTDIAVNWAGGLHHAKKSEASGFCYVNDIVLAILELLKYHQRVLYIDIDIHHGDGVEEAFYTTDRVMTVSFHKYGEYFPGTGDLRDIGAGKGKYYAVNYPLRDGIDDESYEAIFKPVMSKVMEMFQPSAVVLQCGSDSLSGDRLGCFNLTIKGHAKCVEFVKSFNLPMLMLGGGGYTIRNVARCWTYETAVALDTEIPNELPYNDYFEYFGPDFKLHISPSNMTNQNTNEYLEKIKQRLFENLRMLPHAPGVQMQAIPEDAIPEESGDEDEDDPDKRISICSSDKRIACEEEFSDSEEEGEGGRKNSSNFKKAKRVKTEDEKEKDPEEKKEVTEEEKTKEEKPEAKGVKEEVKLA
experimental-readout: HDAC1 fold over HDAC6 IC50 (selectivity for HDAC6)

{"chemical-string": "Cc1cc(F)cc(Nc2ncc(C(=O)NO)cn2)c1", "tgt": "HDAC1 (Homo sapiens (Human), UniProt Q13547)", "val": "(26x)"}
{"chemical-string": "O=C(NO)c1cnc(NC2(c3ccc(F)c(F)c3)CC2)nc1", "tgt": "HDAC1 (Homo sapiens (Human), UniProt Q13547)", "val": "(8x)"}
